Entry source: patent US11498923B2

TESTED_SYSTEM: human A2a receptor (Homo sapiens)
Construct: purchased Perkin-Elmer RBHA2AM400UA; host or cells: HEK293 cells, used as a membrane preparation
ASSAY_PROTOCOL: A2a receptor competition binding assay (Scintillation Proximity)
REPORTED_CONDITIONS: A2a Ki, membranes from HEK293 cells expressing human A2a receptor; 0.5 nM tritiated ligand; Cheng-Prusoff
MEASURED_PROPERTY: Ki (nM)
Please reply with the bare figure in nM and do not write the unit itself.

Record request: Ki value, item COc1cccc2c1nc(N)n1cc(C(=O)N3C4CCCC3CC4)nc21
3.2

Item: COc1cccc2c1nc(N)n1cc(C(=O)N3CCC4(CC3)OCCO4)nc21
54

Item: COc1cccc2c1nc(N)n1cc(C(=O)N3C4CCC3COC4)nc21
8.2

Item: COc1cccc2c1nc(N)n1cc(C(=O)N3C4CCC3CC4)nc21
6.1

---

TESTED_SYSTEM: human A2a receptor (Homo sapiens, UniProt P29274)
Construct: purchased Perkin-Elmer RBHA2AM400UA; host or cells: HEK293 cells, used as a membrane preparation
Sequence (P29274 whole entry): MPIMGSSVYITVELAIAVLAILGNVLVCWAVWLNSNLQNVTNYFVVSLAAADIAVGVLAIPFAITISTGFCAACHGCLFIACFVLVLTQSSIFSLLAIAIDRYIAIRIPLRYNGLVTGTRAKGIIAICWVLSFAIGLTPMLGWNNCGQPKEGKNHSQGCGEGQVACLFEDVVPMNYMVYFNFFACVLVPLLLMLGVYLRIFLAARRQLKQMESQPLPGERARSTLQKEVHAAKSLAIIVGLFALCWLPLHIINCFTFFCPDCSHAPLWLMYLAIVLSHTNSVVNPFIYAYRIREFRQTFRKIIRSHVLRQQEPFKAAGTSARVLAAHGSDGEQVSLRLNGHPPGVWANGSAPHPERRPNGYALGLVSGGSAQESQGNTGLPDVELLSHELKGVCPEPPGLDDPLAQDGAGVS
ASSAY_PROTOCOL: A2a receptor competition binding assay (Scintillation Proximity)
REPORTED_CONDITIONS: membranes from HEK293 cells expressing human A2a receptor; 0.5 nM tritiated ligand; Cheng-Prusoff; read-out: A2a Ki
Please use label 1 for Ki under 10 nM and label 0 for everything else, ties included.

Before answering, review these 8 worked examples.
COc1cccc2c1nc(N)n1cc(Cc3ccccc3N3CCCCC3)nc21 [Ex-36] ... label 1
COc1cccc2c1nc(N)n1cc(C(=O)N(C)Cc3cccc4cccnc34)nc21 [Ex-159] ... label 1
COc1cccc2c1nc(N)n1cc(C(=O)N3CCCC(F)(F)C3)nc21 [Ex-241] ... label 0
Nc1nc2c(F)cccc2c2nc(C(=O)NCc3cccc(N4CCOCC4)c3)cn12 [Ex-257] ... label 1
Nc1nc2c(F)cccc2c2nc(CN3Cc4ccc(Br)cc4C3)cn12 [Ex-126] ... label 0
COc1cccc2c1nc(N)n1cc(C(=O)N3CCC[C@H]3C(F)(F)F)nc21 [Ex-211] ... label 0
Nc1nc2c(F)cccc2c2nc(CN3CCc4cc(NC(=O)c5ccccn5)ccc4C3)cn12 [Ex-127] ... label 0
Nc1nc2c(F)cccc2c2nc(CN3CCc4cc(-c5ccc(F)c(F)c5)ccc4C3)cn12 [Ex-130] ... label 0

Ki strictly < 10 nM for this compound? Nc1nc2c(F)cccc2c2nc(C(=O)N3CCC4(CCN(Cc5ccc(F)cc5)C4)C3)cn12 (stereo not drawn) [Ex-273]
label 0

---

TESTED_SYSTEM: human A2a receptor (Homo sapiens, UniProt P29274)
Construct: purchased Perkin-Elmer RBHA2AM400UA; host or cells: HEK293 cells, used as a membrane preparation
ASSAY_PROTOCOL: A2a receptor competition binding assay (Scintillation Proximity)
REPORTED_CONDITIONS: membranes from HEK293 cells expressing human A2a receptor; 0.5 nM tritiated ligand; Cheng-Prusoff; read-out: A2a Ki
MEASURED_PROPERTY: Ki (nM)
Please reply with the bare figure in nM and do not write the unit itself.

Below: 3 compounds and their reported Ki.
Nc1nc2c(F)cccc2c2nc(CN3CCc4ccc(CC(=O)Nc5ccccn5)cc4C3)cn12 ... 8.4
Nc1nc2c(F)cccc2c2nc(Cc3ccc(C(=O)Nc4ccccn4)cc3)cn12 ... 3.8
COc1cccc2c1nc(N)n1cc(C(=O)N3CCC4(CC3)CC4)nc21 ... 14

Now consider a different compound.
Record request: Ki value, item Nc1nc2ccccc2c2nc(Cc3ccccc3CN3CCOCC3)cn12
10.2

---

TESTED_SYSTEM: human A2a receptor (Homo sapiens)
Construct: purchased Perkin-Elmer RBHA2AM400UA; host or cells: HEK293 cells, used as a membrane preparation
ASSAY_PROTOCOL: A2a receptor competition binding assay (Scintillation Proximity)
REPORTED_CONDITIONS: membranes from HEK293 cells expressing human A2a receptor; 0.5 nM tritiated ligand; Cheng-Prusoff; read-out: A2a Ki
MEASURED_PROPERTY: Ki (nM)
Please reply with the bare figure in nM and do not write the unit itself.

COc1cccc2c1nc(N)n1cc(C(=O)N3CCCC(OC)C3)nc21 (stereo not drawn) [Ex-240] ... 30.6

Record request: Ki value, item Nc1nc2c(F)cccc2c2nc(Cc3cccc(CN4CCOCC4)c3)cn12
3

---

TESTED_SYSTEM: human A2a receptor (Homo sapiens)
Construct: purchased Perkin-Elmer RBHA2AM400UA; host or cells: HEK293 cells, used as a membrane preparation
ASSAY_PROTOCOL: A2a receptor competition binding assay (Scintillation Proximity)
REPORTED_CONDITIONS: membranes from HEK293 cells expressing human A2a receptor; 0.5 nM tritiated ligand; Cheng-Prusoff; read-out: A2a Ki
pKi: −log10 of the molar value.
Quick rule: pKi of at least 8 means class 1, below that means class 0.

Before answering, review these 3 worked examples.
Nc1nc2c(F)cccc2c2nc(Cc3cccc(-c4cccnc4)c3)cn12 ... class 1
COc1cccc2c1nc(N)n1cc(Cc3ccccc3CN3CCOCC3)nc21 ... class 1
Nc1nc2c(F)cccc2c2nc(CC3CCNCC3)cn12 ... class 0

Alright, here's another molecule for you.
Check if pKi >= 8 (inclusive). Item: Nc1nc2c(F)cccc2c2nc(C(=O)N3CCc4cccc(CN5CCN(c6ccc(F)cc6F)CC5)c4C3)cn12
class 0

---

TESTED_SYSTEM: human A2a receptor (Homo sapiens)
Construct: purchased Perkin-Elmer RBHA2AM400UA; host or cells: HEK293 cells, used as a membrane preparation
ASSAY_PROTOCOL: A2a receptor competition binding assay (Scintillation Proximity)
REPORTED_CONDITIONS: membranes from HEK293 cells expressing human A2a receptor; 0.5 nM tritiated ligand; Cheng-Prusoff; read-out: A2a Ki
pKi overview
API: returns pKi as number; meaning -log10 of concentration in mol/L.

Below: 5 compounds and their reported pKi.
COc1cccc2c1nc(N)n1cc(C(=O)N3CCCC(F)C3)nc21 (stereo not shown) ... 7.70
Nc1nc2c(F)cccc2c2nc(C(=O)NCc3ccccc3N3CCN(CCCO)CC3)cn12 ... 7.92
COc1cccc2c1nc(N)n1cc(C(=O)N3CCC[C@H]3CF)nc21 ... 8.44
Cn1cc(-c2ccc(F)c3nc(N)n4cc(Cc5ccccc5)nc4c23)ccc1=O ... 7.57
Nc1nc2ccccc2c2nc(C(=O)NCc3cccc4cccnc34)cn12 ... 7.40

Record request: pKi value, item COc1ccc(-c2cn(Cc3cn4c(N)nc5c(OC)cccc5c4n3)nn2)cc1
8.60

Item: COc1cccc2c1nc(N)n1cc(CN3Cc4cccnc4C3)nc21
7.96

Item: COc1cccc2c1nc(N)n1cc(C(=O)N3CC4CC3CS(=O)(=O)C4)nc21 (stereo not shown)
7.43

---

TESTED_SYSTEM: human A2a receptor (Homo sapiens, UniProt P29274)
Construct: purchased Perkin-Elmer RBHA2AM400UA; host or cells: HEK293 cells, used as a membrane preparation
ASSAY_PROTOCOL: A2a receptor competition binding assay (Scintillation Proximity)
REPORTED_CONDITIONS: membranes from HEK293 cells expressing human A2a receptor; 0.5 nM tritiated ligand; Cheng-Prusoff; read-out: A2a Ki
Ki overview
Please reply with the bare figure in nM and do not write the unit itself.

Below: 5 compounds and their reported Ki.
COc1cccc2nc(N)n3cc(Cc4ccccc4)nc3c12 ... 642
Nc1nc2c(F)cccc2c2nc(C(=O)N3CCc4ccc(CC(=O)Nc5ccccn5)cc4C3)cn12 ... 46
Nc1nc2c(F)cccc2c2nc(C(=O)NCc3ccccc3CN3CCN(c4ccc(F)cc4F)CC3)cn12 ... 18
COc1cccc(CN2CCC(Cc3cn4c(N)nc5c(F)cccc5c4n3)CC2)c1 ... 56
COc1cccc2c1nc(N)n1cc(CCN3Cc4cccnc4C3)nc21 ... 13.1

Now consider a different compound.
Record request: Ki value, item CC(C)(C)OC(=O)N1CCCC2(CCN(C(=O)c3cn4c(N)nc5c(F)cccc5c4n3)CC2)C1
86

---

TESTED_SYSTEM: human A2a receptor (Homo sapiens)
Construct: purchased Perkin-Elmer RBHA2AM400UA; host or cells: HEK293 cells, used as a membrane preparation
ASSAY_PROTOCOL: A2a receptor competition binding assay (Scintillation Proximity)
REPORTED_CONDITIONS: membranes from HEK293 cells expressing human A2a receptor; 0.5 nM tritiated ligand; Cheng-Prusoff; read-out: A2a Ki
Ki overview
Please reply with the bare figure in nM and do not write the unit itself.

Below: 6 compounds and their reported Ki.
CC(=O)N1CCN(c2ccccc2CNC(=O)c2cn3c(N)nc4c(F)cccc4c3n2)CC1 ... 2.5
Nc1nc2c(F)cccc2c2nc(CN3CCOCC3)cn12 ... 380
COc1cccc2c1nc(N)n1cc(C(=O)N3CC(C)(C)OC(C)(C)C3)nc21 ... 210
COc1cccc2c1nc(N)n1cc(Cc3ccc(N4CCOCC4)cc3)nc21 ... 15
Nc1nc2c(F)cccc2c2nc(Cc3ccnc(N4CCN(c5nc6ccccc6o5)CC4)c3)cn12 ... 102
Nc1nc2c(F)cccc2c2nc(Cc3cccc4c3CCN(Cc3ccccn3)C4)cn12 ... 9.9

Record request: Ki value, item COc1cccc2c1nc(N)n1cc(Cc3ccccc3C(F)(F)F)nc21
0.8

Item: CCN1CCN(Cc2cn3c(N)nc4c(F)cccc4c3n2)CC1
520

Item: COc1cccc2c1nc(N)n1cc(Cc3ccc(F)cc3F)nc21
1

Item: COc1ccc2c(c1)nc(N)n1cc(Cc3ccccc3)nc21
2.6

Item: COc1cccc2c1nc(N)n1cc(C(=O)N3CC[C@@H](CF)C3)nc21
11

Item: Cc1noc(C)c1-c1cccc2c1nc(N)n1cc(Cc3ccc(F)cc3)nc21
48

Item: Nc1nc2c(F)cccc2c2nc(Cc3ccc4c(c3)CN(Cc3ccccc3)C4)cn12
5.1
